target: T1, Human complement Factor D, mature (human, UniProt P00746 27-253); experiment: SPR (Biacore T200): Fab captured with anti-huFab kit, human Factor D injected, 25 C, 1:1 model;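 further: sensorgrams were corrected by subtracting a blank injection of running buffer before fitting kinetic and affinity constants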
T1 construct: In the TR-FRET assay the factor D was bought from Complement Technology; In the hemolysis assay it was the factor D of C1q-depleted human serum; also called human Factor D; hFD
T1 sequence (P00746 27-253): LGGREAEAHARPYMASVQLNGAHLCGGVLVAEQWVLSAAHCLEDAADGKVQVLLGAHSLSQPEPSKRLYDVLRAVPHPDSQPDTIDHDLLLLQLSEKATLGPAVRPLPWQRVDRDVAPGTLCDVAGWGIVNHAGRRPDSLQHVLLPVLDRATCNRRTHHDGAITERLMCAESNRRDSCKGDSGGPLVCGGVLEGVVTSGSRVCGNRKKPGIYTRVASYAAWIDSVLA
measured attribute: kon (M⁻¹ s⁻¹)
Numbers only, in M⁻¹ s⁻¹.

binder	kon (M⁻¹ s⁻¹)
hu20D12.v2.5 Fab (Fab, V domains shown) VH: EVQLVQSGAEVKKPGASVKVSCKASGYTFTSYYMYWVRQAPGQGLEWIGEINPYSGGTNFNEKFKSRATLTVDTSTSTAYLELSSLRSEDTAVYYCAREGGFAYWGQGTLVTVSS VL: DIQMTQSPSSLSASVGDRVTITCKASQNVDTDVAWFQQKPGKAPKGLIYSASSRYSGVPSRFSGSGSGTDFTLTISSLQPEDFATYYCQQYNNYPLTFGQGTKVEIKR	1.7e+07
hu20D12.v2.1 Fab (Fab, V domains shown) VH: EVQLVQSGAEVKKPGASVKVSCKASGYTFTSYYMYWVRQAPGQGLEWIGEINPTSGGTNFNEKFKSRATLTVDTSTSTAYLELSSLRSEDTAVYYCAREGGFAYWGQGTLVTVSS VL: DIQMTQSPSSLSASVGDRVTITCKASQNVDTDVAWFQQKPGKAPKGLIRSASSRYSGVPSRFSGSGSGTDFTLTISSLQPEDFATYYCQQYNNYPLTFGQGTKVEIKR	1.2e+07
hu20D12.v2.7 Fab (Fab, V domains shown) VH: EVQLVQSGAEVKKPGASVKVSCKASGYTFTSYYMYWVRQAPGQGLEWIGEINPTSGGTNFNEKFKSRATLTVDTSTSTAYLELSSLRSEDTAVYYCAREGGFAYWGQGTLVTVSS VL: DIQMTQSPSSLSASVGDRVTITCKASQNVDTDVAWFQQKPGKAPKGLIKSASSRYSGVPSRFSGSGSGTDFTLTISSLQPEDFATYYCQQYNNYPLTFGQGTKVEIKR	1.1e+07
hu20D12.v2.14 Fab (Fab, V domains shown) VH: EVQLVQSGAEVKKPGASVKVSCKASGYTFTSYYMYWVRQAPGQGLEWIGEINPTSGETNFNEKFKSRATLTVDTSTSTAYLELSSLRSEDTAVYYCAREGGFAYWGQGTLVTVSS VL: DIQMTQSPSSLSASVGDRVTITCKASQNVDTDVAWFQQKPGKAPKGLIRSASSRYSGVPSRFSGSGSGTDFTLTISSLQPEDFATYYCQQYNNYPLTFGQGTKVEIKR	1.5e+07

Measured kon, hu20D12.v2.8 Fab (Fab, V domains shown) VH: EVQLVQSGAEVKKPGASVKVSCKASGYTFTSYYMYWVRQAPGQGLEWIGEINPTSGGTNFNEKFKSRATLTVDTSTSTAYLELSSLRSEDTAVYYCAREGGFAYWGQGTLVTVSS VL: DIQMTQSPSSLSASVGDRVTITCKASQNVDTDVAWFQQKPGKAPKGLIQSASSRYSGVPSRFSGSGSGTDFTLTISSLQPEDFATYYCQQYNNYPLTFGQGTKVEIKR : 6.6e+07
